test description: Selectivity index, ratio of CC50 for human mock-infected MT4 cells to EC50 for HIV1 3B harboring reverse transcriptase L100I mutant infected in human MT4 cells
Type: toxicity, cell-based
cond: MT4 cells (mock-infected for CC50, HIV-1 infected for EC50)
property name: selectivity ratio

Some solved entries appear below for comparison.
[[record]]
compound_structure = "Cc1cc(C#N)cc(C)c1Oc1nc(NC2CCN(Cc3cccc(S(N)(=O)=O)c3)CC2)nc2ccsc12"
property_name = "selectivity ratio"
observed_value = "> 8030"

[[record]]
compound_structure = "Cc1cc(C#N)cc(C)c1Oc1nc(NC2CCN(Cc3ccc(S(N)(=O)=O)cc3)CC2)nc2ccsc12"
property_name = "selectivity ratio"
observed_value = "> 159000"

[[record]]
compound_structure = "CCOC(=O)c1ccc(CN2CCC(Nc3nc(Oc4c(C)cc(C#N)cc4C)c4sccc4n3)CC2)cc1"
property_name = "selectivity ratio"
observed_value = "> 20"

[[record]]
compound_structure = "Cc1cn([C@H]2C[C@H](N=[N+]=[N-])[C@@H](CO)O2)c(=O)[nH]c1=O"
property_name = "selectivity ratio"
observed_value = "> 1990"

[[record]]
compound_structure = "CC(=O)NS(=O)(=O)c1ccc(CN2CCC(Nc3nc(Oc4c(C)cc(C#N)cc4C)c4sccc4n3)CC2)cc1"
property_name = "selectivity ratio"
observed_value = "> 145"


Please turn your attention to the following entry.
Value of measured selectivity ratio for the entry Cc1cc(C)c(Oc2nc(NC3CCN(Cc4ccc([N+](=O)[O-])cc4)CC3)nc3ccsc23)c(C)c1 : < 1
